List of pKi values.
System Name: Procathepsin L (Homo sapiens)
Sequence (P07711 whole entry): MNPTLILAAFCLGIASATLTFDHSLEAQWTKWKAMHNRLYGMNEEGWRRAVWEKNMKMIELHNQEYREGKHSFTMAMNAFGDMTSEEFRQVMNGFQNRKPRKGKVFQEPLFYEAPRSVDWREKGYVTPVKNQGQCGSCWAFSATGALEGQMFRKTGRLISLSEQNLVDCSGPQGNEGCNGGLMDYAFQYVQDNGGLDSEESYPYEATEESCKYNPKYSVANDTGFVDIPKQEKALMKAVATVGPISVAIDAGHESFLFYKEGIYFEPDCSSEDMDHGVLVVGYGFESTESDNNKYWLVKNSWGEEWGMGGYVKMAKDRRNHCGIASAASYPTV
pKi: −log10 of the molar value.
Quantity: pKi

>  <Compound Smiles>
N=C(N)NCCC[C@H](NC(=O)[C@H](CS)NC(=O)Cc1ccc(-c2ccccc2)cc1)C(=O)N[C@@H](CC1CCCCC1)C(=O)NCCc1ccccc1

>  <Measured Value>
6.80

$$$$
>  <Compound Smiles>
N=C(N)NCCC[C@H](NC(=O)[C@H](CS)NC(=O)Cc1ccc(-c2ccccc2)cc1)C(=O)N[C@@H](Cc1c[nH]c2ccccc12)C(=O)NCCc1ccccc1

>  <Measured Value>
7.17

$$$$
>  <Compound Smiles>
CSC[C@@H](NC(=O)Cc1ccc(-c2ccccc2)cc1)C(=O)N[C@@H](CCCN=C(N)N)C(=O)N[C@@H](CC(C)C)C(=O)NCCc1ccccc1

>  <Measured Value>
6.57

$$$$
